src = patent US20150322474A1

# Assayed target: T1, VGAGIGFPAYDG peptide substrate
# T1 chain: VGAGIGFPAYDG
Recorded metric: Cyclic ion count (%) (M + H = 699)
Report the figure in % without appending any unit label.

Quick one: Cyclic ion count (%) (M + H = 699) for PatGmac K594D (protein) GEDEIESAGVSASEVESSATKQKVALHPHDLDERIPGLADLHNQTLGDPQITIVIIDGDPDYTLSCFEGAEVSKVFPYWHEPAEPITPEDYAAFQSIRDQGLDGKEKEEALEAVIPDTKDRIVLNDHACHVTSTIVGQEHSPVFGIAPNCRVINMPQDAVIRGNYDDVMSPLNLARAIDLALELGANIIHCAFCRPTQTSEGEEILVQAIKKCQDNNVLIVSPTGNNSNESWCLPAVLPGTLAVGAAKVDGTPCHFSNWGGNNTKEGILAPGEEILGAQPCTEEPVRLTGTSMAAPVMTGISALLMSLQVQQGKPVDAEAVRTALLKTAIPCDPEVVEEPERCLRGFVNIPGAMKVLFGQ ?
29
